All values here come from patent US9512114B2.

# Target Or System: PI3K (p110α/p85α) (h) (Homo sapiens (Human))
# Sequence (P42336 whole entry): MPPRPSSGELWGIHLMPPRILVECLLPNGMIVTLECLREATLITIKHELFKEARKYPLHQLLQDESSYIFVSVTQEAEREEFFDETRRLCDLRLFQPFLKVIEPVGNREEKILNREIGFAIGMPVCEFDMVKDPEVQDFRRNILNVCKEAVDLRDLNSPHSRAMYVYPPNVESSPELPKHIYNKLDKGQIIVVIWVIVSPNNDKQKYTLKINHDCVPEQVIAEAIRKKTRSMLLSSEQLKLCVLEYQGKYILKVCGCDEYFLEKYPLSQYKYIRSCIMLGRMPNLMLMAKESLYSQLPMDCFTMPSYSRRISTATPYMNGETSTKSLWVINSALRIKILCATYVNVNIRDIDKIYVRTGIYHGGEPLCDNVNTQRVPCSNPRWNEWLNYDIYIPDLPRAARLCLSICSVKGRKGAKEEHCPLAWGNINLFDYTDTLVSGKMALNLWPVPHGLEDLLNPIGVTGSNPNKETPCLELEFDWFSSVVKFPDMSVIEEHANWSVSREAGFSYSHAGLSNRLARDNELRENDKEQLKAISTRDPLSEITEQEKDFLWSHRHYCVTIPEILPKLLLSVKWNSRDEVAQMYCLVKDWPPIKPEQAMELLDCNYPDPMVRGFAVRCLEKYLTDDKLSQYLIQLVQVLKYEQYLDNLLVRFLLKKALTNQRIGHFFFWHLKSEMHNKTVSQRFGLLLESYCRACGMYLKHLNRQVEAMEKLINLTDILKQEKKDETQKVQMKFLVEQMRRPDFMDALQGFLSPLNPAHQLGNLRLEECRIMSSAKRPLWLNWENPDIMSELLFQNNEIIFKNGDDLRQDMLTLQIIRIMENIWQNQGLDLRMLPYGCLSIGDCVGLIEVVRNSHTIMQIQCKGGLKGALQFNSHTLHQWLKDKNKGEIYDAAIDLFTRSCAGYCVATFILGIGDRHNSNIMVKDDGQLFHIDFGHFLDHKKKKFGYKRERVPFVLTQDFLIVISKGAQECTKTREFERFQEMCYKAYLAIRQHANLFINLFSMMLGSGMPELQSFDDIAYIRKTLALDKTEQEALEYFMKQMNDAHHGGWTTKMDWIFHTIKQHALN
# Sequence (P27986 whole entry partner): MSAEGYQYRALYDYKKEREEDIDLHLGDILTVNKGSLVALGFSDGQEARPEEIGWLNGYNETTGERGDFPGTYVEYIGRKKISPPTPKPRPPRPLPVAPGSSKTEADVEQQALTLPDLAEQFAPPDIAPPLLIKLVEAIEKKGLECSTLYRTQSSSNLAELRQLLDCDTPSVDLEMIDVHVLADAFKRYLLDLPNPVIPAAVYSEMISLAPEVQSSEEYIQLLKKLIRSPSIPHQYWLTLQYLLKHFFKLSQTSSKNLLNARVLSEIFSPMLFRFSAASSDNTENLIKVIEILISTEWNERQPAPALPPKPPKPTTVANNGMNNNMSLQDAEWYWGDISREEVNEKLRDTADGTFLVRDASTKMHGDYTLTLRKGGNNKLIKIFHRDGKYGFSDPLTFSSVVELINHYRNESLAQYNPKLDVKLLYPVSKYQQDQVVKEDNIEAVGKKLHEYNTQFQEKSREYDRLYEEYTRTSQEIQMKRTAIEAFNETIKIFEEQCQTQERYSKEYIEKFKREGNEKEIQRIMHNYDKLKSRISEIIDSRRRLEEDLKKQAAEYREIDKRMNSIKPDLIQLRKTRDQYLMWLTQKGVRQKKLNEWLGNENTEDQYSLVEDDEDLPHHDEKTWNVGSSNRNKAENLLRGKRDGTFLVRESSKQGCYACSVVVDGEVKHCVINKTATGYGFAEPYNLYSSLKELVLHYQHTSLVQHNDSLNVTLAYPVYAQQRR
# Method Notes: PI3K (p110α/p85α) (h) non-radioactive HTRF kinase assay
# Experimental Setup: performed at Millipore UK Ltd
# Method: The above assay procedure can be used to determine the IC50 for inhibition and/or the inhibition constant, Ki. PI3K (p110α/p85α) (h) [Non-Radioactive Assay] PI3K (p110α/p85α) (h) is incubated in assay buffer containing 10 μM phosphatidylinositol 4,5-bisphosphate and MgATP (concentration as required). […] The plate is then read in timeresolved fluorescence mode and the homogenous time-resolved fluorescence (HTRF) signal is determined according to the formula HTRF=10000×(Em665 nm/Em620 nm). […]
pIC50: −log10 of the molar value.
Measurement Label: pIC50

Worked examples, 3 molecules total:
# Molecule, Measured Result
rows = [
    ("Cc1noc(-c2c(N)ncnc2N[C@@H](C)c2cc3cccc(-c4cnn(C)c4)c3c(=O)n2-c2ccccc2)n1 [Ex. 28]", 6.65),
    ("Cc1nc(-c2c(N)ncnc2N[C@@H](C)c2cc3cccc(Cl)c3c(=O)n2C2CC2)no1 [Ex. 11]", 5.83),
    ("Cc1noc(-c2c(N)ncnc2N[C@@H](C)c2cc3cccc(Cl)c3c(=O)n2C2CC2)n1 [Ex. 24]", 6.51),
]

[P] Cc1nnc(-c2c(N)ncnc2N[C@@H](C)c2cc3cccc(-c4cnn(C)c4)c3c(=O)n2C2CC2)o1 [Ex. 25]
[Q] Cc1noc(-c2c(N)ncnc2N[C@@H](C)c2cc3cccc(-c4cnn(C)c4)c3c(=O)n2C2CC2)n1 [Ex. 26]
[R] Cc1noc(-c2c(N)ncnc2N[C@@H](C)c2cc3cccc(Cl)c3c(=O)n2-c2ccccc2)n1 [Ex. 8]
[S] Cc1nnc(-c2c(N)ncnc2N[C@@H](C)c2cc3cccc(Cl)c3c(=O)n2C2CC2)o1 [Ex. 4]
[T] Cc1nnc(-c2c(N)ncnc2N[C@@H](C)c2cc3cccc(Cl)c3c(=O)n2-c2ccccc2)o1 [Ex. 9]
*Q* Please put the entries in order of rising pIC50. Dear reader, please state the labels in the requested order.
*A* T, S, P, R, Q
(T: 5.57, S: 5.83, P: 6.05, R: 6.56, Q: 6.88)

----------
# Target Or System: PI3K (p110δ/p85α) (h) (Homo sapiens (Human), UniProt O00329)
# Sequence (O00329 whole entry): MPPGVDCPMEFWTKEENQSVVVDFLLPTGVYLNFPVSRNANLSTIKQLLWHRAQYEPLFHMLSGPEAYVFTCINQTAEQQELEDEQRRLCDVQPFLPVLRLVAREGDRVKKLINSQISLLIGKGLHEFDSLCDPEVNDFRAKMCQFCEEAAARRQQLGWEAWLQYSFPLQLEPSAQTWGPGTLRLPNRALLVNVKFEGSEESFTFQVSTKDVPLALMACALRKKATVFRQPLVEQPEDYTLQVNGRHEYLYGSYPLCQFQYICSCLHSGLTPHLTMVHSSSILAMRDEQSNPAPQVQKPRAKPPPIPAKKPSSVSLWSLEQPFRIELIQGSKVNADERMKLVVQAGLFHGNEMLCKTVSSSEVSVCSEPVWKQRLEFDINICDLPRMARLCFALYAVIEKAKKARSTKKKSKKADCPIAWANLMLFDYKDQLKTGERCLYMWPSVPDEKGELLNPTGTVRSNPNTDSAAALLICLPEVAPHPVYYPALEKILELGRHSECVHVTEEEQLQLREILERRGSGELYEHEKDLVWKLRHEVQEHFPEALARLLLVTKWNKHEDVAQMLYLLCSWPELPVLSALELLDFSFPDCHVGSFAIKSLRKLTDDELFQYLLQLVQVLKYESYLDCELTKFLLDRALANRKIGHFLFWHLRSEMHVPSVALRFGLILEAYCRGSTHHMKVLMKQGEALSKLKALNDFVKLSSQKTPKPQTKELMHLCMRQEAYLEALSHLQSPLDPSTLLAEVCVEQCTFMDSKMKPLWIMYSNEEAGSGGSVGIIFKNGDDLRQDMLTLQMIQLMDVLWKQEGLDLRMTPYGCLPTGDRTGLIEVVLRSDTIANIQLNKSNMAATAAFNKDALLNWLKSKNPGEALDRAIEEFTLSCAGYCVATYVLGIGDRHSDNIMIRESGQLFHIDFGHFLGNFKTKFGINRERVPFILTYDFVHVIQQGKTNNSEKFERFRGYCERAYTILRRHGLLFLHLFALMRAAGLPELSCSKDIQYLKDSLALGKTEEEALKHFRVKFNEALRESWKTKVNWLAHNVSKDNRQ
# Sequence (P27986 whole entry partner): as the sequence (P27986 whole entry partner) above
# Method Notes: PI3K (p110δ/p85α) (h) non-radioactive HTRF kinase assay
# Experimental Setup: performed at Millipore UK Ltd
Measurement Label: IC50 (nM)

Worked examples, 5 compounds total:
# Compound, IC50 (nM)
records = [
    ("Cc1nnc(-c2c(N)ncnc2N[C@@H](C)c2cc3cccc(Cl)c3c(=O)n2-c2ccccc2)o1 [Ex. 9]", 4),
    ("Cc1noc(-c2c(N)ncnc2N[C@@H](C)c2cc3cccc(-c4cnn(C)c4)c3c(=O)n2-c2ccccc2)n1 [Ex. 28]", 9),
    ("CC[C@H](Nc1ncnc(N)c1-c1nc(C)no1)c1cc2cccc(C)c2c(=O)n1-c1ccccc1 [Ex. 2]", 2),
    ("Cc1nnc(-c2c(N)ncnc2N[C@@H](C)c2cc3cccc(Cl)c3c(=O)n2C2CC2)o1 [Ex. 4]", 11),
    ("Cc1noc(-c2c(N)ncnc2N[C@@H](C)c2cc3cccc(-c4cnn(C)c4)c3c(=O)n2C2CC2)n1 [Ex. 26]", 4),
]

[1] Cc1nnc(-c2c(N)ncnc2N[C@@H](C)c2cc3cccc(-c4cnn(C)c4)c3c(=O)n2C2CC2)o1 [Ex. 25]
[2] CC[C@H](Nc1ncnc(N)c1-c1nc(C)no1)c1cc2cccc(F)c2c(=O)n1C1CC1 [Ex. 1]
[3] CC[C@H](Nc1ncnc(N)c1-c1noc(C)n1)c1cc2cccc(F)c2c(=O)n1-c1ccccc1 [Ex. 18]
[4] Cc1noc(-c2c(N)ncnc2N[C@@H](C)c2cc3cccc(Cl)c3c(=O)n2-c2ccccc2)n1 [Ex. 8]
[5] C[C@H](Nc1ncnc(N)c1-c1ncn(C)n1)c1cc2cccc(Cl)c2c(=O)n1C1CC1 [Ex. 16]
*Q* Please put the entries in order of rising IC50. Dear reader, please state the labels in the requested order.
*A* 4, 2, 1, 3, 5

----------
# Method Notes: Pharmacokinetic profiles in dogs
# Assay type: in vivo
# Experimental Setup: plasma; Dog, iv dosing 1 mg/kg
Measurement Label: half-life (h)

# Compound, U, half-life
data = [
    ("Cc1nnc(-c2c(N)ncnc2N[C@@H](C)c2cc3cccc(Cl)c3c(=O)n2-c2ccccc2)o1 [Ex. 9]", "h", 1.25),
    ("Cc1noc(-c2c(N)ncnc2N[C@@H](C)c2cc3cccc(Cl)c3c(=O)n2-c2ccccc2)n1 [Ex. 8]", "h", 1.7),
]

----------
# Method Notes: Pharmacokinetic profiles in rats
# Format: in vivo, rat
# Experimental Setup: rat, plasma, iv dosing 1 mg/kg
Measurement Label: AUC(0-t) (ng·h/mL)

Worked examples, 5 compounds total:
# Compound, AUC(0-t), ng·h/mL
measured = [
    ("Cc1noc(-c2c(N)ncnc2N[C@@H](C)c2cc3cccc(Cl)c3c(=O)n2-c2ccccc2)n1 [Ex. 8]", 291),
    ("CC[C@H](Nc1ncnc(N)c1-c1nc(C)no1)c1cc2cccc(Cl)c2c(=O)n1C1CC1 [Ex. 7]", 307),
    ("Cc1noc(-c2c(N)ncnc2N[C@@H](C)c2cc3cccc(-c4cnn(C)c4)c3c(=O)n2C2CC2)n1 [Ex. 26]", 337),
    ("C[C@H](Nc1ncnc(N)c1-c1nnn(C)n1)c1cc2cccc(Cl)c2c(=O)n1C1CC1 [Ex. 12]", 555),
    ("CCc1noc(-c2c(N)ncnc2N[C@@H](CC)c2cc3cccc(Cl)c3c(=O)n2C2CC2)n1 [Ex. 22]", 167),
]

[A] CC[C@H](Nc1ncnc(N)c1-c1noc(C)n1)c1cc2cccc(F)c2c(=O)n1-c1ccccc1 [Ex. 18]
[B] CC[C@H](Nc1ncnc(N)c1-c1nc(C)no1)c1cc2cccc(C)c2c(=O)n1-c1ccccc1 [Ex. 2]
[C] Cc1nnc(-c2c(N)ncnc2N[C@@H](C)c2cc3cccc(-c4cnn(C)c4)c3c(=O)n2C2CC2)o1 [Ex. 25]
[D] Cc1noc(-c2c(N)ncnc2N[C@@H](C)c2cc3cccc(Cl)c3c(=O)n2C2CC2)n1 [Ex. 24]
[E] C[C@H](Nc1ncnc(N)c1-c1nnn(C)n1)c1cc2cccc(Cl)c2c(=O)n1-c1ccccc1 [Ex. 15]
*Q* List items by AUC(0-t) in falling order. Dear reader, please state the labels in the requested order.
*A* E, C, A, B, D
(E: 758 ng·h/mL, C: 497 ng·h/mL, A: 323 ng·h/mL, B: 215 ng·h/mL, D: 139 ng·h/mL)

[I] CC[C@H](Nc1ncnc(N)c1-c1nc(C)no1)c1cc2cccc(F)c2c(=O)n1C1CC1 [Ex. 1]
[II] CC[C@H](Nc1ncnc(N)c1-c1nnc(C)o1)c1cc2cccc(Cl)c2c(=O)n1-c1ccccc1 [Ex. 5]
[III] Cc1nnc(-c2c(N)ncnc2N[C@@H](C)c2cc3cccc(Cl)c3c(=O)n2-c2ccccc2)o1 [Ex. 9]
[IV] Cc1nnc(-c2c(N)ncnc2N[C@@H](C)c2cc3cccc(Cl)c3c(=O)n2C2CC2)o1 [Ex. 4]
*Q* List items by AUC(0-t) in falling order. Dear reader, please state the labels in the requested order.
*A* III, IV, II, I
(III: 964 ng·h/mL, IV: 498 ng·h/mL, II: 320 ng·h/mL, I: 178 ng·h/mL)

[I] CC[C@H](Nc1ncnc(N)c1-c1nc(C)no1)c1cc2cccc(-c3cnn(C)c3)c2c(=O)n1C1CC1 [Ex. 32]
[II] CC[C@H](Nc1ncnc(N)c1-c1nc(C)no1)c1cc2cccc(Cl)c2c(=O)n1-c1ccccc1 [Ex. 3]
*Q* Parameter check: reported AUC(0-t) is higher for which label, I or II ? State your choice using its label.
*A* I

[A] CC[C@H](Nc1ncnc(N)c1-c1noc(C)n1)c1cc2cccc(-c3cnn(C)c3)c2c(=O)n1C1CC1 [Ex. 31]
[B] C[C@H](Nc1ncnc(N)c1-c1nnn(C)n1)c1cc2cccc(-c3cnn(C)c3)c2c(=O)n1-c1ccccc1 [Ex. 29]
[C] CC[C@H](Nc1ncnc(N)c1-c1nnn(C)n1)c1cc2cccc(Cl)c2c(=O)n1C1CC1 [Ex. 13]
[D] CC[C@H](Nc1ncnc(N)c1-c1nnc(C)o1)c1cc2cccc(C)c2c(=O)n1C1CC1 [Ex. 6]
[E] C[C@H](Nc1ncnc(N)c1-c1ncn(C)n1)c1cc2cccc(Cl)c2c(=O)n1C1CC1 [Ex. 16]
*Q* Please put the entries in order of rising AUC(0-t). Dear reader, please state the labels in the requested order.
*A* E, D, C, A, B

[I] Cc1nc(-c2c(N)ncnc2N[C@@H](C)c2cc3cccc(-c4cnn(C)c4)c3c(=O)n2C2CC2)no1 [Ex. 34]
[II] C[C@H](Nc1ncnc(N)c1-c1nnn(C)n1)c1cc2cccc(-c3cnn(C)c3)c2c(=O)n1C1CC1 [Ex. 33]
*Q* Field: lower recorded AUC(0-t) (choose I or II ) State your choice using its label.
*A* I
(I: 678 ng·h/mL, II: 1300 ng·h/mL)
